target: Monoamine transporters; Norepinephrine & dopamine (Homo sapiens) (UniProt Q01959+P23975); assay: selectivity ratio between noradrenaline and dopamine transporter binding; assay type: protein assay
Sequence (P23975 whole entry, looked up): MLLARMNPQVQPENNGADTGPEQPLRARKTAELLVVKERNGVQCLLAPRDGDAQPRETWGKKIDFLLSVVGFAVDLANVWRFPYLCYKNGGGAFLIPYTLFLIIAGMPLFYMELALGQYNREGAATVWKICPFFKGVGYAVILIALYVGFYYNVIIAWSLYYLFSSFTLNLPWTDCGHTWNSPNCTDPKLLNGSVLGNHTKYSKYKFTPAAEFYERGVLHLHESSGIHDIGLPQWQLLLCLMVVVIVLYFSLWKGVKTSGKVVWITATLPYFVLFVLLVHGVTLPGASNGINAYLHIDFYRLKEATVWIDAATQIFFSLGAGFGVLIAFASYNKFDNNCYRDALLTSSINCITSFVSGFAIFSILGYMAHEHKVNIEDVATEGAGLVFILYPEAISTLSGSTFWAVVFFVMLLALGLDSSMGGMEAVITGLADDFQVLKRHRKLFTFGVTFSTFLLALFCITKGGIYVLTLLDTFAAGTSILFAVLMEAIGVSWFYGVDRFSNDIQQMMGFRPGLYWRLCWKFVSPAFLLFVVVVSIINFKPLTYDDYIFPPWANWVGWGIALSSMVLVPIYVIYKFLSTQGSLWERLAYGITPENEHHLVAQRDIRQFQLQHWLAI
Sequence (Q01959 whole entry, looked up): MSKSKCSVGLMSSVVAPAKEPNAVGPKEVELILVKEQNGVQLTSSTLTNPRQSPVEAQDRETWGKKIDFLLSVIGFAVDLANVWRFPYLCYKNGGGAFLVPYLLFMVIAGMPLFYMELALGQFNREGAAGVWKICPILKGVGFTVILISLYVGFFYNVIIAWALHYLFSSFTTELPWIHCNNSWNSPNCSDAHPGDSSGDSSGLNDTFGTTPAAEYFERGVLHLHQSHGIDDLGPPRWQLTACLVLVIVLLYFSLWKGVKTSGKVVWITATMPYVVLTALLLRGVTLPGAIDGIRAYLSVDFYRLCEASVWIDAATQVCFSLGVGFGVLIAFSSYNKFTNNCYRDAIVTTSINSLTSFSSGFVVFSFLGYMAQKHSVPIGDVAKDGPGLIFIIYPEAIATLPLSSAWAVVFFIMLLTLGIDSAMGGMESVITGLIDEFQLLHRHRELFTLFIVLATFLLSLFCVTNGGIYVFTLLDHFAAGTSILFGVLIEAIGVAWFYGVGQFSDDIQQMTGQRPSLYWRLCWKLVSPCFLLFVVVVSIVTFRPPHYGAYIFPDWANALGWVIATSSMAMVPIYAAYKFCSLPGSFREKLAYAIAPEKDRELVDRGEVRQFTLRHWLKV
ENDPOINT: Selectivity ratio
Answer with a bare number; do not write a unit.

INSERT INTO measurements (test_smiles, reported_value) VALUES
  ('Fc1ccc(C(OCCNCCCNCCc2ccccc2)c2ccc(F)cc2)cc1', 2.9);

Sample `O=C1CN(CCc2ccccc2)CCN1CCOC(c1ccc(F)cc1)c1ccc(F)cc1` ; Selectivity ratio observed: 4.9

Sample `O=C(Cc1ccccc1)NCCNCCOC(c1ccc(F)cc1)c1ccc(F)cc1` ; Selectivity ratio observed: 11.2

Sample `CN(CCOC(c1ccc(F)cc1)c1ccc(F)cc1)CCN(C)CCOC(c1ccc(F)cc1)c1ccc(F)cc1` ; Selectivity ratio observed: 10.2

Sample `O=C(CCc1ccccc1)NCCNCCOC(c1ccc(F)cc1)c1ccc(F)cc1` ; Selectivity ratio observed: 10.7

Sample `O=C(Cc1ccc(F)cc1)NCCNCCOC(c1ccc(F)cc1)c1ccc(F)cc1` ; Selectivity ratio observed: 15.6

Sample `O=C(Cc1ccccc1)NCCCNCCOC(c1ccc(F)cc1)c1ccc(F)cc1` ; Selectivity ratio observed: 7.8

Sample `CN(CCCN(C)CCc1ccccc1)CCOC(c1ccccc1)c1ccccc1` ; Selectivity ratio observed: 0.6

Sample `CN(CCOC(c1ccccc1)c1ccccc1)CCN(C)CCc1ccc(F)cc1` ; Selectivity ratio observed: 12.3

Sample `O=C1CN(CCOC(c2ccccc2)c2ccccc2)CCN1CCCc1ccccc1` ; Selectivity ratio observed: 1

Sample `CN(CCCc1ccccc1)CCCN(C)CCOC(c1ccccc1)c1ccccc1` ; Selectivity ratio observed: 0.2

Sample `O=C(/C=C/c1ccc(Br)cc1)NCCNCCOC(c1ccc(F)cc1)c1ccc(F)cc1` ; Selectivity ratio observed: 3.5

* * *

biological target: Sodium-dependent noradrenaline transporter (Homo sapiens); assay: Inhibition of [125I]RTI-55 binding to norepinephrine transporter (NET) expressed in HEK cells; type: cell-based, HEK293
pKi: −log10 of the molar value.
Assign 1 (yes) whenever pKi does not fall below 7; assign 0 (no) whenever it does.

Record excerpt, results attached:
INSERT INTO results (test_smiles, experimental_system, cat) VALUES
  ('CN(CCCc1ccccc1)CCCN(C)CCOC(c1ccccc1)c1ccccc1', 'Sodium-dependent noradrenaline transporter (Homo sapiens)', '1 (yes)'),
  ('O=C(Cc1ccc(F)cc1)NCCNCCOC(c1ccc(F)cc1)c1ccc(F)cc1', 'Sodium-dependent noradrenaline transporter (Homo sapiens)', '0 (no)'),
  ('O=C(Cc1ccccc1)NCCCNCCOC(c1ccc(F)cc1)c1ccc(F)cc1', 'Sodium-dependent noradrenaline transporter (Homo sapiens)', '0 (no)'),
  ('CN(CCCN(C)CCc1ccccc1)CCOC(c1ccccc1)c1ccccc1', 'Sodium-dependent noradrenaline transporter (Homo sapiens)', '0 (no)');

Q: Item `CN(CCOC(c1ccccc1)c1ccccc1)CCN(C)CCc1ccc(F)cc1` with pKi of 7 or above?
A: 0 (no)

* * *

target: Monoamine transporters; serotonin & dopamine (Homo sapiens) (UniProt P31645+Q01959); assay: Selectivity ratio between serotonin and dopamine transporters; type: protein assay
Selectivity ratio by entry:
Answer with a bare number; do not write a unit.

INSERT INTO results (test_smiles, reported_value) VALUES
  ('O=C1CN(CCOC(c2ccccc2)c2ccccc2)CCN1CCCc1ccccc1', 0.7),
  ('CN(CCOC(c1ccc(F)cc1)c1ccc(F)cc1)CCN(C)CCOC(c1ccc(F)cc1)c1ccc(F)cc1', 30.1),
  ('O=C(Cc1ccc(F)cc1)NCCNCCOC(c1ccc(F)cc1)c1ccc(F)cc1', 6.5),
  ('O=C(CCc1ccccc1)NCCNCCOC(c1ccc(F)cc1)c1ccc(F)cc1', 10.3);

Proceed to the following item.
Sample `O=C(Cc1ccccc1)NCCNCCOC(c1ccc(F)cc1)c1ccc(F)cc1` ; Selectivity ratio observed: 10.3

* * *

target: Sodium-dependent dopamine transporter (Homo sapiens, UniProt Q01959); test: Inhibition of [3H]DA uptake in HEK cells expressing dopamine transporter; format: functional, cell-based, HEK293
IC50 by entry:
A number alone suffices; assume nM.

INSERT INTO measurements (test_smiles, reported_value) VALUES
  ('Fc1ccc(C(OCCNCCCNCCc2ccccc2)c2ccc(F)cc2)cc1', 68);

Sample `O=C(CCc1ccccc1)NCCNCCOC(c1ccc(F)cc1)c1ccc(F)cc1` ; IC50 observed: 90

Sample `O=C(Cc1ccccc1)NCCCNCCOC(c1ccc(F)cc1)c1ccc(F)cc1` ; IC50 observed: 73

Sample `O=C(Cc1ccccc1)NCCNCCOC(c1ccc(F)cc1)c1ccc(F)cc1` ; IC50 observed: 80

* * *

target: Sodium-dependent serotonin transporter (Homo sapiens); assay: Inhibition of [3H]- 5-HT uptake in HEK cells expressing serotonin transporter; assay type: functional, cell-based, HEK293
Sequence (P31645 whole entry): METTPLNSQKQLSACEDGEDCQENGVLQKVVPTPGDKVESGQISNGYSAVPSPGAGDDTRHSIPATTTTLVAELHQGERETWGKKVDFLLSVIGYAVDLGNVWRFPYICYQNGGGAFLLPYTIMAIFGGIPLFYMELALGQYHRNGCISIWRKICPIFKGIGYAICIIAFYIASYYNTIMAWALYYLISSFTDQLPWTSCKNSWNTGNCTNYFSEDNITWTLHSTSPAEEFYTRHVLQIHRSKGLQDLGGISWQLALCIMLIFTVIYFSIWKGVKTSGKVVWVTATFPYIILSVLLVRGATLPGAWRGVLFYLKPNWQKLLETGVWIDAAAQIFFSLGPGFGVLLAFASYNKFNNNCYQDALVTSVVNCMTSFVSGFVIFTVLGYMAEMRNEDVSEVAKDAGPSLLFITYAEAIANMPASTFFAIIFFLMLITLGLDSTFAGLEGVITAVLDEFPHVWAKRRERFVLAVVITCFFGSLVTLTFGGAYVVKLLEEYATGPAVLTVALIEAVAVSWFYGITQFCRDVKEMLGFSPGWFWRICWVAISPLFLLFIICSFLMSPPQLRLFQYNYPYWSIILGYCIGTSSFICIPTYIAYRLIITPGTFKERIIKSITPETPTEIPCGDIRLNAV
IC50 by entry:

INSERT INTO results (test_smiles, endpoint, reported_value) VALUES
  ('O=C(Cc1ccccc1)NCCCNCCOC(c1ccc(F)cc1)c1ccc(F)cc1', 'IC50', '1230 nM'),
  ('O=C1CN(CCOC(c2ccccc2)c2ccccc2)CCN1CCCc1ccccc1', 'IC50', '> 10 nM');

Proceed to the following item.
For the compound `CN(CCOC(c1ccc(F)cc1)c1ccc(F)cc1)CCN(C)CCOC(c1ccc(F)cc1)c1ccc(F)cc1` , the measured IC50 on Sodium-dependent serotonin transporter (Homo sapiens) was > 10000 nM

* * *

Ratio by entry:
molecular target: Sodium-dependent serotonin transporter (Homo sapiens); assay: Ratio between [3H]5-HT reuptake and SERT binding; type: functional
Sequence (P31645 whole entry, looked up): as the sequence (P31645 whole entry) above

INSERT INTO measurements (test_smiles, reported_value) VALUES
  ('CN(CCOC(c1ccc(F)cc1)c1ccc(F)cc1)CCN(C)CCOC(c1ccc(F)cc1)c1ccc(F)cc1', '> 13'),
  ('O=C1CN(CCc2ccccc2)CCN1CCOC(c1ccc(F)cc1)c1ccc(F)cc1', '> 34.5');

Proceed to the following item.
Sample `O=C1CN(CCOC(c2ccccc2)c2ccccc2)CCN1CCCc1ccccc1` ; Ratio observed: > 1.7

* * *

molecular target: Sodium-dependent noradrenaline transporter (Homo sapiens, UniProt P23975); experiment: Inhibition of [3H]- NE uptake in HEK cells expressing norepinephrine transporter
Sequence (P23975 whole entry): as the sequence (P23975 whole entry, looked up) above
IC50 by entry:

Answered examples (3):
INSERT INTO assay_data (test_smiles, reported_value) VALUES
  ('O=C1CN(CCc2ccccc2)CCN1CCOC(c1ccc(F)cc1)c1ccc(F)cc1', '> 10000 nM'),
  ('O=C1CN(CCOC(c2ccccc2)c2ccccc2)CCN1CCCc1ccccc1', '> 10 nM'),
  ('O=C(/C=C/c1ccc(Br)cc1)NCCNCCOC(c1ccc(F)cc1)c1ccc(F)cc1', '> 10000 nM');

Proceed to the following item.
Sample `O=C(Cc1ccccc1)NCCNCCOC(c1ccc(F)cc1)c1ccc(F)cc1` ; IC50 observed: 399 nM

* * *

target: Monoamine transporters; serotonin & dopamine (Homo sapiens) (UniProt P31645+Q01959); assay: Selectivity ratio between serotonin and dopamine transporters; format: protein assay
Selectivity ratio by entry:
Answer with a bare number; do not write a unit.

INSERT INTO assay_data (test_smiles, reported_value) VALUES
  ('CN(CCCc1ccccc1)CCCN(C)CCOC(c1ccccc1)c1ccccc1', 3.6),
  ('O=C(Cc1ccccc1)NCCCNCCOC(c1ccc(F)cc1)c1ccc(F)cc1', 18.8),
  ('CN(CCOC(c1ccccc1)c1ccccc1)CCN(C)CCc1ccc(F)cc1', 18.3),
  ('O=C1CN(CCc2ccccc2)CCN1CCOC(c1ccc(F)cc1)c1ccc(F)cc1', 0.1),
  ('Fc1ccc(C(OCCNCCCNCCc2ccccc2)c2ccc(F)cc2)cc1', 4.5),
  ('CN(CCCN(C)CCc1ccccc1)CCOC(c1ccccc1)c1ccccc1', 4.7);

Sample `O=C(/C=C/c1ccc(Br)cc1)NCCNCCOC(c1ccc(F)cc1)c1ccc(F)cc1` ; Selectivity ratio observed: 1.2
